molecular target: AHR (Mus musculus); experiment: In vitro assay 3: antagonism in mouse cell line (AHR transactivation, firefly luciferase reporter, kynurenic acid prestimulated); format: cell-based; conditions: Hepa 1c1c7 cells, 200 μM kynurenic acid, 20 hours, firefly luciferase reporter, read-out: AHR Antagonism Mouse IC50
Sequence (P30561 whole entry P471L/N533S/M589L, form open): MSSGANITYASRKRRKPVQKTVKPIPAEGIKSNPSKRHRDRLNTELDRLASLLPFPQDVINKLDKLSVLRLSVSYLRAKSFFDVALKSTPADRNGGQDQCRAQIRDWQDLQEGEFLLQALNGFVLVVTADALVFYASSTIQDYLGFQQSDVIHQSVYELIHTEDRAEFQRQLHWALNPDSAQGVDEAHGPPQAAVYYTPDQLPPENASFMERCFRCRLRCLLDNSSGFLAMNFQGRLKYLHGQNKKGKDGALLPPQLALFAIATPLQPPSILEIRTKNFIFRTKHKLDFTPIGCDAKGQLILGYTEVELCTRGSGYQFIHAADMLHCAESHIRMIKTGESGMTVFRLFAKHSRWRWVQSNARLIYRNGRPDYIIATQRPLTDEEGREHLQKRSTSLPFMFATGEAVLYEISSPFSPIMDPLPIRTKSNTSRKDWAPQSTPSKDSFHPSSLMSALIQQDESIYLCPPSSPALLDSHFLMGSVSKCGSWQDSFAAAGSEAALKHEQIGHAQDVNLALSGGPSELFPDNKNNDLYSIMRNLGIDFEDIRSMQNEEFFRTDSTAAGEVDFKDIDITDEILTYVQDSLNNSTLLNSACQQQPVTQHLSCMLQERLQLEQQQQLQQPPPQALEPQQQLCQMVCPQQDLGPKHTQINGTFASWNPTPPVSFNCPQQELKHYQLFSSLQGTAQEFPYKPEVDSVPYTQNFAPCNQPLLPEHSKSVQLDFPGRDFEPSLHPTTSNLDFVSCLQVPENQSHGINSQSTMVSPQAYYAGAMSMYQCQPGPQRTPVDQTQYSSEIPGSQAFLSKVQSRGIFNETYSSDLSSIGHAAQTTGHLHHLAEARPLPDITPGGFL
Give IC50 for every item shown.
Value expressed in nM; do not type the unit.

I'd like to know its IC50. The compound in question is C[C@@H](Nc1nc2c(Br)cccc2c2nc(-c3cnn(C)c3)nn12)C(=O)NCCCN(C)C
771

Another compound: COc1ccc(-c2nc3c4cccc(Br)c4nc(N[C@@H](C(=O)N4CCN(C)CC4)C(C)C)n3n2)cc1
2.03

Another compound: Cc1nn(C)cc1-c1nc2c3cccc(C(F)(F)F)c3nc(N[C@H]3CNCCNC3=O)n2n1
49.6

Another compound: C[C@@H](Nc1nc2c(Br)cccc2c2nc(-c3cnn(C)c3)nn12)C(=O)N1CCN(C(=O)OC(C)(C)C)CC1
99.3

Another compound: COc1ccc(-c2nc3c4ccccc4nc(N[C@H](C)C(=O)NCCN4CCCCC4)n3n2)cc1
28.5

Another compound: COc1ccc(-c2nc3c4cccc(Br)c4nc(N[C@H](C)C(=O)N4CCN(C)[C@H](C)C4)n3n2)cc1
1.71

Another compound: CC(C)n1cc(-c2nc3c4cccc(Cl)c4nc(N[C@@H]4CNCCNC4=O)n3n2)cn1
8.5

Another compound: CC[C@H](Nc1nc2c(C(F)(F)F)cccc2c2nc(-c3ccnn3C)nn12)C(N)=O
70.4

Another compound: COc1ccc(-c2nc3c4ccccc4nc(N[C@H](C)C(=O)NCC(C)(C)N)n3n2)cc1
48.1

Another compound: N#Cc1cccc2c1nc(N[C@@H]1CNCCNC1=O)n1nc(-c3cnn(C4CC4)c3)nc21
173

Another compound: COc1ccc(-c2nc3c4cccc(Br)c4nc(N[C@H](C)C(=O)N4CC5(CN(C)C5)C4)n3n2)cc1
31.9

Another compound: C[C@@H](Nc1nc2c(Br)cccc2c2nc(-c3cnn(C)c3)nn12)C(=O)N1CCOCC1
32.2

====

biological target: AHR (Homo sapiens); construct: U87 MG glioblastoma cells (ATCC #HTB-14) endogenously expressing AHR; endogenous in cells; host or cells: U87 MG glioblastoma cells (ATCC #HTB-14); experiment: In vitro assay 1: antagonism in human cell line (AHR transactivation, firefly luciferase reporter, kynurenic acid prestimulated); assay type: cell-based; conditions: AHR Antagonism Human IC50 [M], firefly luciferase reporter
Sequence (P35869 11-848): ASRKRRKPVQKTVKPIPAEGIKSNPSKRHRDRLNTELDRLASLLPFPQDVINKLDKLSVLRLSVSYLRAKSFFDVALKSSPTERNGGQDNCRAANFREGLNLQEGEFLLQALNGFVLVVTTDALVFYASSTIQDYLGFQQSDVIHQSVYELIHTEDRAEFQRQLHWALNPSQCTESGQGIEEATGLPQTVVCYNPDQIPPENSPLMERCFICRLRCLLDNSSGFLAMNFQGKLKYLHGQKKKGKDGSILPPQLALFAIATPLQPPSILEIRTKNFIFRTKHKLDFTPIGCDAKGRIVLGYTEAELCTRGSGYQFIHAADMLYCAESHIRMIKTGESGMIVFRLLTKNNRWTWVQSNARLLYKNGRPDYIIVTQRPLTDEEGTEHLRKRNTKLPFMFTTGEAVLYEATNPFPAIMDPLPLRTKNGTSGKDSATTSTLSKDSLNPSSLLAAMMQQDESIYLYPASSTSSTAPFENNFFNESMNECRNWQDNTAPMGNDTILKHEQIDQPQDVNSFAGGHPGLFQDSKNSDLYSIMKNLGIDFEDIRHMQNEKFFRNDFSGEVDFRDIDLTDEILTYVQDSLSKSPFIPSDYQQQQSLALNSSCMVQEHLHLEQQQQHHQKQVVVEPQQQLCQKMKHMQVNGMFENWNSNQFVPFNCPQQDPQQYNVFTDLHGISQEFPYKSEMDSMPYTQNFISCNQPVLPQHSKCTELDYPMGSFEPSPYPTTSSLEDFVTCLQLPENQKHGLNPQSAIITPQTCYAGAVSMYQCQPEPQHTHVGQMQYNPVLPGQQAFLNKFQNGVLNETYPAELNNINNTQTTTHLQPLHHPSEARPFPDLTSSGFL
Give IC50 for every item shown.
Value expressed in M; do not type the unit.

I'd like to know its IC50. The compound in question is C[C@@H](Nc1nc2c(C(F)(F)F)cccc2c2nc(-c3cnn(C)c3)nn12)C(=O)N1CCOCC1 [Example 874]
2.31e-08

Another compound: C[C@@H]1CN(C(=O)[C@@H](C)Nc2nc3c(Br)cccc3c3nc(-c4cnn(C)c4)nn23)CCO1 [Example 906]
2.3e-08

Another compound: COc1ccc(-c2nc3c4cccc(OCCC(C)(C)O)c4nc(N[C@@H]4CCCCNC4=O)n3n2)cc1 [Example 1000]
9.07e-09

Another compound: COc1ccc(-c2nc3c4cccc(Br)c4nc(N[C@H](C)C(=O)N4CCO[C@@H](C)C4)n3n2)cc1 [Example 909]
2.36e-09

Another compound: CC[C@H](Nc1nc2c(Br)cccc2c2nc(-c3ccnn3C)nn12)C(N)=O [Example 801]
1.04e-07

Another compound: CCn1cc(-c2nc3c4cccc(Cl)c4nc(N[C@@H]4CNCCNC4=O)n3n2)cn1 [Example 957]
1.22e-08

Another compound: N#Cc1cccc2c1nc(N[C@@H]1CNCCNC1=O)n1nc(-c3cnn(C4CCC4)c3)nc21 [Example 933]
7.39e-08

Another compound: Cn1nccc1-c1nc2c3cccc(C(F)(F)F)c3nc(N[C@H]3CCCCNC3=O)n2n1 [Example 807]
1.1e-07

Another compound: N#Cc1cccc2c1nc(N[C@@H]1CNCCNC1=O)n1nc(-c3cn[nH]c3)nc21 [Example 935]
4.72e-06

Another compound: CC(C)n1cc(-c2nc3c4cccc(C(F)(F)F)c4nc(N[C@@H]4CS(=O)(=O)CCNC4=O)n3n2)cn1 [Example 852]
8.28e-09

Another compound: CCCNC(=O)[C@@H](CC)Nc1nc2c(Br)cccc2c2nc(-c3ccc(Cl)cc3OC(F)F)nn12 [Example 797]
1.58e-09

Another compound: Cc1nn(C)cc1-c1nc2c3cccc(Br)c3nc(N[C@@H]3CNCCNC3=O)n2n1 [Example 962]
4.37e-09

Another compound: C[C@@H](Nc1nc2c(Br)cccc2c2nc(-c3cnn(C)c3)nn12)C(=O)N1C[C@H]2C[C@@H]1CN2C [Example 902]
8e-08

Another compound: C[C@@H](Nc1nc2c(Br)cccc2c2nc(-c3cnn(C)c3)nn12)C(=O)N1CCN(C(=O)OC(C)(C)C)CC1 [Example 886]
6.83e-08
